test system: SK-MEL-2 melanoma; test: NCI-60 one-dose screen, 48 h (100 = growth as untreated, 0 = no growth, -100 = all killed); conditions: 10 µM unless noted
About 83,000 compounds went through this panel and 20% of them were active in at least one assay; those are over-represented in the sample as a whole.
OUTCOME_MEASURE: growth (%)
Give the quantity in %, number only.

# COMPOUND, growth / %
rows = [
    ("CC(C)Oc1ccc2cc(-c3nn(CC4CCNCC4)c4ncnc(N)c34)ccc2c1", 100),
    ("O=[N+]([O-])c1ccc(N/N=C\\c2cc(Br)ccc2O)nc1", 39.7),
    ("Nc1ccc2ccc(N)cc2c1", 68.4),
    ("CN1CCN(C2CCN(C(=O)Nc3cc(Oc4ccc(NC(=O)C5(C(=O)Nc6ccc(F)cc6)CC5)c(F)c4)ccn3)CC2)CC1", 81.3),
]

Determine from records and report growth for O=C(CN1CCOCC1)N1CCOCC1
109

Determine from records and report growth for CCN(CC)CCCC(C)Nc1ccnc2cc(Oc3ccccc3)ccc12 (stereo unspecified)
115
